# credit: paper PMC6407599

# Tested on: Hsp90-Cyp40 interaction (C-terminal domain of Hsp90 and full-length Cyp40)
# ASSAY OVERVIEW: AlphaLISA binding assay, Hsp90-Cyp40 interaction
# CONDITION: C-terminal domain of Hsp90 and full-length Cyp40, DMSO (1%) = 100% binding, read-out: IC50, inhibition of Hsp90-Cyp40 interaction
Peptide text beside a SMILES is read from it. * marks the point of attachment. Cbz = O=C(OCc1ccccc1)*
MEASURED QUANTITY: IC50 (µM)
Write it as a number; the unit µM goes unstated.

Give the value of IC50 reported for the following: NCCCC[C@@H]1NC(=O)[C@H](Cc2ccccc2)NC(=O)[C@H](Cc2ccc(O)cc2)NC(=O)[C@H](CO)NC(=O)[C@H](CC(N)=O)NC1=O [LB51] (cyclo(KNSYF)) 4

Read the entry CC(=O)OC[C@@H]1NC(=O)[C@H](CC(N)=O)NC(=O)[C@H](CCCCNC(=O)OCc2ccccc2)NC(=O)[C@H](C)NC(=O)[C@H](Cc2ccc(OC(C)=O)cc2)NC1=O [LB63(Ac)2–Cbz, cyclo-Ala-Tyr(Ac)-Ser(Ac)-Asn-Lys(Cbz)] (cyclo(K(Cbz)NS(Ac)Y(Ac)A)) and write its reported IC50. 10

State its IC50 for this compound: C[C@@H]1NC(=O)[C@H](Cc2ccc(O)cc2)NC(=O)[C@H](CO)NC(=O)[C@H](CC(N)=O)NC(=O)[C@H](CCCCN)NC1=O [LB63] (cyclo(KNSYA)) 2
